# Experimental Target: T1, Sul7s K43A (Sulfolobus islandicus Rey15A, UniProt F0NBY5 1-59, K43A)
# T1 sequence: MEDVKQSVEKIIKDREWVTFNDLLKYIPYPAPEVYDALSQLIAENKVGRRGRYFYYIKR
# Test Method Notes: BLI; BLI: 50 mM Tris-Cl pH 7.5, 100 mM NaCl, 1 mM EDTA, 0.02% Tween-20, 30 C; NMR: 20 mM potassium phosphate pH 7.0, 30 mM NaCl, 0.02% NaN3, 298 K
# Cond: protein: recombinant; tags: untagged; label: 5'-biotin
Endpoint Label: Kd (µM)

Binder: TTTCTACCCTTTGGTGCTAATGCCCATACT (ssDNA) [S30 (S30-F)]
Reported: 27.9

Origin of the recorded values: paper PMC8998557
